This collection of values is drawn from patent US20250034275A1.

Target: T1, human Trop-2-His (human, UniProt P09758 27-274, limits assumed)
T1 construct: by analogy with the macaque construct it is probably the extracellular domain with a His tag; also called Trop-2-His protein
T1 sequence: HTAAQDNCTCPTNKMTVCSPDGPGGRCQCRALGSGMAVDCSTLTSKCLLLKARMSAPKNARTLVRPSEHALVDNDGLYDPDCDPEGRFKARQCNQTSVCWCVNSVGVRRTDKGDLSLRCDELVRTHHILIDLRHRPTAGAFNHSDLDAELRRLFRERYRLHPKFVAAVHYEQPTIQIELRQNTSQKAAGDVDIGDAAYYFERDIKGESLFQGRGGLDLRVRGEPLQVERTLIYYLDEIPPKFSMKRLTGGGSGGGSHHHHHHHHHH
Test: ELISA, plate-coated human Trop-2-His
Method: After the liquid was discarded, 2% BSA (SIGMA, B2064-100G) diluted with PBS was added at 300 μL/well for blocking, and the mixture was incubated at 37° C. for 2 h. […] The absorbance values at 450 nm were taken using a microplate reader. The binding curves of antibodies for antigen were fitted using software, and the EC₅₀ values were calculated.
measured-property: pEC50
The read-out pEC50 is expressed as -log10 of concentration in moles per litre.

Use these answered entries as a reference point.
hz-Ab2-1.1 (antibody, human IgG1, kappa, V domains shown, Humanized antibody) VH: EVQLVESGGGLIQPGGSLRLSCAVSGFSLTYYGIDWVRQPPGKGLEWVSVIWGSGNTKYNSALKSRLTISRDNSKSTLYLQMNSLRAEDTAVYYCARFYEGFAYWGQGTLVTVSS VL: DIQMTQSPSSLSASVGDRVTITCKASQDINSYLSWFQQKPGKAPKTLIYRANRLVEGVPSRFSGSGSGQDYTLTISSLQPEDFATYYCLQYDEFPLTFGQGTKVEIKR = 10.09
hz-Ab2-2.2 (antibody, human IgG1, kappa, V domains shown, Humanized antibody) VH: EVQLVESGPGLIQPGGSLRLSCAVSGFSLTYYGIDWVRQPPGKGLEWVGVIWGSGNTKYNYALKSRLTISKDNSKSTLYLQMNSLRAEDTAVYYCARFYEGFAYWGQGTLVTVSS VL: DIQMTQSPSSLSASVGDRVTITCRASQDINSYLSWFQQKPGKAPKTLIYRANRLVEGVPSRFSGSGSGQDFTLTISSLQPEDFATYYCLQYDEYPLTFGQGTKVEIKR = 9.66

Turning now to a further record.
Return value of pEC50 for input hz-Ab2-2.3 (antibody, human IgG1, kappa, V domains shown, Humanized antibody) VH: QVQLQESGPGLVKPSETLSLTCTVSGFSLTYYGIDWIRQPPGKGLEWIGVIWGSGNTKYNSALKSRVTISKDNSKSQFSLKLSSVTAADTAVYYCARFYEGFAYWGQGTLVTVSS VL: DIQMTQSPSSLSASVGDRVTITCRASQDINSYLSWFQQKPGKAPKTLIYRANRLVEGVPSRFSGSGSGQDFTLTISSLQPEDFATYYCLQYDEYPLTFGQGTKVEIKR , no commentary.
9.44
